This collection of values is drawn from patent US12522597B2.

- Test system: Huntingtin (HTT) transcripts
- assay_info: Quantitative splicing assay (HTT), qPCR
- Type: cell-based
- measurement_setup: Homo sapiens; GM04724 (CAG 70/20) Huntington's disease patient lymphoblasts, 24 h, qPCR HTTex49_50; read-out: HTT Potency - Splicing: E49-50 EC50 (average)
pEC50: −log10 of the molar value.
measured_parameter: pEC50

compound	measured_parameter	recorded_result
Cn1cc(-c2ccc(-c3ccc(O[C@H]4C[C@@H]5CCC[C@@H](N5)[C@H]4F)nn3)c(O)c2)oc1=O (single isomer, unassigned)	pEC50	7.30 to 7.80
COc1cc(-c2ccc(-c3ccc(O[C@H]4C[C@]5(C)CC[C@@](C)(N5)[C@H]4F)nn3)c(O)c2)cnn1 (single isomer, unassigned)	pEC50	7.30 to 7.80
Cn1cc(-c2ccc(-c3ccc(O[C@@H]4C[C@H]5CCC[C@H](N5)[C@@H]4F)nn3)c(O)c2)cn1 (single isomer, unassigned)	pEC50	7.30 to 7.80
Oc1cc(-c2cn[nH]c2)ccc1-c1ccc(O[C@@H]2C[C@H]3CCC[C@H](N3)[C@@H]2F)nn1 (single isomer, unassigned)	pEC50	7.82 to 11.00
Cn1cc(-c2ccc(-c3ccc(O[C@@H]4C[C@H]5CCC[C@H](N5)[C@@H]4F)nn3)c(O)c2)oc1=O (single isomer, unassigned)	pEC50	7.30 to 7.80

QUERY: Provide pEC50, system Huntingtin (HTT) transcripts, entry Cn1cc(-c2ccc(-c3ccc(O[C@H]4C[C@@H]5CCC[C@@H](N5)[C@H]4F)nn3)c(O)c2F)cn1 (single isomer, unassigned)
RESULT: 7.30 to 7.80

QUERY: Provide pEC50, system Huntingtin (HTT) transcripts, entry Oc1cc(-n2cccn2)ccc1-c1ccc(O[C@H]2C[C@@H]3CC[C@@H](N3)[C@H]2F)nn1 (single isomer, unassigned)
RESULT: 6.30 to 7.00

* * *

Reported MDCK-MDR1: % Recov A-B values are given for each entry in this list.
- Tested on: MDR1-MDCK cell monolayers
- assay_info: MDCK-MDR1 permeability assay (BBB penetration potential)
- Format: in vitro ADME
- measurement_setup: dog, MDCK-MDR1, 120 min, 5 μM, pH 7.4
- Description: Each determination is performed in duplicate. […] Analytical conditions are outlined below.

Past entries and their recorded results:
compound	recorded_result
Cc1ncc(-c2ccc(-c3ccc(O[C@H]4C[C@@H]5CCC[C@@H](N5)[C@H]4F)nn3)c(O)c2)o1 (single isomer, unassigned)	67%
C[C@]12CCC[C@](C)(N1)[C@H](F)[C@H](Oc1ccc(-c3ccc(-c4cn[nH]c4)cc3O)nn1)C2 (single isomer, unassigned)	71%
Cc1ccc(-c2ccc(-c3ccc(O[C@@H]4C[C@H]5CCC[C@H](N5)[C@@H]4F)nn3)c(O)c2)nn1 (single isomer, unassigned)	90%
N#Cc1ccc(-c2ccc(O[C@H]3C[C@@H]4CC[C@@H](N4)[C@H]3F)nn2)c(O)c1 (single isomer, unassigned)	92%
N#Cc1ccc(-c2ccc(O[C@@H]3C[C@H]4CC[C@H](N4)[C@@H]3F)nn2)c(O)c1 (single isomer, unassigned)	90%

Note: attention shifts to another entry.
QUERY: Please supply the value of reported MDCK-MDR1: % Recov A-B for the item Oc1cc(-c2cn[nH]c2)ccc1-c1ccc(O[C@@H]2C[C@H]3CCC[C@H](N3)[C@H]2F)nn1 (single isomer, unassigned)
RESULT: 66%
